Test system: Serratia marcescens IFO 12648
Experimental protocol: Anti-bacterial test, minimum inhibitory concentration on agar
Type: cell-based
Setup conditions: IFO12648; Serratia marcescens IFO 12648; medium TSA; read-out: Minimum inhibitory concentration
Assignment: determine reported MIC for the given molecules.
Value expressed in µg/mL; do not type the unit.

Value lookup for MIC; key = CCCCCCCCN1CCN(C(=O)NC(C(=O)NC2CN(S(=O)(=O)O)C2=O)c2csc(N)n2)C(=O)C1=O (stereo not drawn) [Compound H] 12.5

Value lookup for MIC; key = CCN1CCN(C(=O)N[C@@H](C(=O)NC2CN(S(=O)(=O)O)C2=O)c2ccccc2)C(=O)C1=O (single isomer, unassigned) [Compound B] 3.13

Value lookup for MIC; key = CCCCCCCCN1CCN(C(=O)N[C@@H](C(=O)NC2CN(S(=O)(=O)O)C2=O)c2ccccc2)C(=O)C1=O (stereo partly drawn) [Compound G] 1.56

---

Tested on: Serratia marcescens IFO 12648
Experimental protocol: Anti-bacterial test, minimum inhibitory concentration on agar
Format: cell-based
Setup conditions: IFO12648; Serratia marcescens IFO 12648; medium TSA; read-out: Minimum inhibitory concentration
Assignment: determine reported MIC for the given molecules.
Value expressed in µg/mL; do not type the unit.

Value lookup for MIC; key = CCN1CCN(C(=O)NC(C(=O)NC2CN(S(=O)(=O)O)C2=O)c2csc(N)n2)C(=O)C1=O (stereo not shown) [Compound D] 0.78

Value lookup for MIC; key = O=C(NC1CN(S(=O)(=O)O)C1=O)[C@H](NC(=O)N1CCN(N=Cc2cccs2)C1=O)c1ccccc1 (stereo partly shown) [Compound K] 1.56

Value lookup for MIC; key = CCN1CCN(C(=O)N[C@@H](C(=O)NC2(OC)CN(S(=O)(=O)O)C2=O)c2ccccc2)C(=O)C1=O (single isomer, unassigned) [Compound C] 50

Value lookup for MIC; key = O=C(NC1CN(S(=O)(=O)O)C1=O)[C@H](NC(=O)N1CCN(N=Cc2ccco2)C1=O)c1ccccc1 (stereo partly shown) [Compound I] 1.56

---

Tested on: Enterobacter cloacae IFO 12937
Experimental protocol: Anti-bacterial test, minimum inhibitory concentration on agar
Type: cell-based
Setup conditions: IFO12937; Enterobacter cloacae IFO 12937; medium TSA; read-out: Minimum inhibitory concentration
Assignment: determine reported MIC for the given compounds.

Lab request: please report MIC under test system Enterobacter cloacae IFO 12937 for CCN1CCN(C(=O)N[C@@H](C(=O)NC2(OC)CN(S(=O)(=O)O)C2=O)c2ccccc2)C(=O)C1=O (single isomer, unassigned) > 100 µg/mL

Lab request: please report MIC under test system Enterobacter cloacae IFO 12937 for CCCCCCCCN1CCN(C(=O)N[C@@H](C(=O)NC2CN(S(=O)(=O)O)C2=O)c2ccccc2)C(=O)C1=O (stereo partly shown) 6.25 µg/mL

Lab request: please report MIC under test system Enterobacter cloacae IFO 12937 for CCN1CCN(C(=O)N[C@@H](C(=O)NC2CN(S(=O)(=O)O)C2=O)c2ccccc2)C(=O)C1=O (single isomer, unassigned) 50 µg/mL

Lab request: please report MIC under test system Enterobacter cloacae IFO 12937 for CCCCCCCCN1CCN(C(=O)NC(C(=O)NC2CN(S(=O)(=O)O)C2=O)c2csc(N)n2)C(=O)C1=O (stereo not shown) 50 µg/mL

Lab request: please report MIC under test system Enterobacter cloacae IFO 12937 for CCN1CCN(C(=O)NC(C(=O)NC2CN(S(=O)(=O)O)C2=O)c2csc(N)n2)C(=O)C1=O (stereo not shown) 25 µg/mL

Lab request: please report MIC under test system Enterobacter cloacae IFO 12937 for O=C(NC1CN(S(=O)(=O)O)C1=O)[C@H](NC(=O)N1CCN(N=Cc2cccs2)C1=O)c1ccccc1 (stereo partly shown) 12.5 µg/mL

Lab request: please report MIC under test system Enterobacter cloacae IFO 12937 for O=C(NC1CN(S(=O)(=O)O)C1=O)[C@H](NC(=O)N1CCN(N=Cc2ccco2)C1=O)c1ccccc1 (stereo partly shown) 25 µg/mL
